protocolDescription: Pharmacokinetic detection in dogs
Format: in vivo
appliedConditions: both sexes, dog, plasma; beagle dogs, IV, 1 mg/kg
assayMetric: AUC(0-t) (ng·h/mL)
Give just the numeric value; ng·h/mL need not be written.

INSERT INTO results (compound, assaymetric, observedmeasurement) VALUES
  ('C[C@@H](Nc1nc(N[C@H](C)C(F)(F)F)nc(-c2cccc(Cl)n2)n1)C(F)(F)F [compound 1, reference compound]', 'AUC(0-t)', 653);

Here is another compound to look at.
Task: Reported AUC(0-t), compound C[C@@H](Nc1nc(N[C@H](C)C(F)(F)F)nc(-c2cc(F)c(N)c(Cl)n2)n1)C(F)(F)F : ____
Result: 2630

###

The reader will find reported solubility at 2 h values listed item by item below.
protocolDescription: Kinetic solubility experiment
Assay type: physicochemical
appliedConditions: buffer, aqueous buffer, kinetic from dmso stock, pH = 7.4, 37° C.
Answer format: number, then unit.

INSERT INTO measurements (compound, observedmeasurement) VALUES
  ('C[C@@H](Nc1nc(N[C@H](C)C(F)(F)F)nc(-c2cc(F)c(N)c(Cl)n2)n1)C(F)(F)F [Example 5]', '48.1 µg/mL');

Task: Reported solubility at 2 h, compound C[C@@H](Nc1nc(N[C@H](C)C(F)(F)F)nc(-c2cccc(Cl)n2)n1)C(F)(F)F [compound 1, reference compound] : ____
Result: 0.8 µg/mL

###

The reader will find reported Cmax values listed item by item below.
protocolDescription: Pharmacokinetic detection in dogs
Assay type: in vivo
appliedConditions: both sexes, dog, plasma; beagle dogs, PO, 5 mg/kg
Give just the numeric value; ng/mL need not be written.

INSERT INTO measurements (compound, observedmeasurement) VALUES
  ('C[C@@H](Nc1nc(N[C@H](C)C(F)(F)F)nc(-c2cc(F)c(N)c(Cl)n2)n1)C(F)(F)F [Example 5]', 1160);

Here is another compound to look at.
Task: Reported Cmax, compound C[C@@H](Nc1nc(N[C@H](C)C(F)(F)F)nc(-c2cccc(Cl)n2)n1)C(F)(F)F [compound 1, reference compound] : ____
Result: 658

###

targetEntity: IDH1^R132H (Homo sapiens, UniProt O75874, R132H)
Sequence (O75874 whole entry R132H): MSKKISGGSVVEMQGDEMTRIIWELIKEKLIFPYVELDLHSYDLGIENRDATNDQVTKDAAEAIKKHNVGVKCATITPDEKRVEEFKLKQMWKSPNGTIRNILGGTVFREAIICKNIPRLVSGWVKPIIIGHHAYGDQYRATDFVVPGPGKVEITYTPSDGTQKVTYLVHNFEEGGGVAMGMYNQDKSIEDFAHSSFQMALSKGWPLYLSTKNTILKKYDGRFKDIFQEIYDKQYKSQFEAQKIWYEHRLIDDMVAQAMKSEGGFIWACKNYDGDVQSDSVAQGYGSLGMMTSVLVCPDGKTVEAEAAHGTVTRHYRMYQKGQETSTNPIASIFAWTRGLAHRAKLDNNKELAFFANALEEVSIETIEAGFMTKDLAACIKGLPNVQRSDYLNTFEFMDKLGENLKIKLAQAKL
protocolDescription: Enzyme activity inhibition assay (fluorescence-based), IDH1 R132H
Assay type: biochemical
appliedConditions: class symbols
The reader will find reported IC50 values listed item by item below.

INSERT INTO measurements (chemsmiles, observedmeasurement) VALUES
  ('CNc1c(Cl)cc(-c2nc(N[C@H](C)C(F)(F)F)nc(N[C@H](C)C(F)(F)F)n2)nc1Cl', '> 1000 nM'),
  ('C[C@@H](Nc1nc(N[C@H](C)C(F)(F)F)nc(-c2cc(C(F)F)c(N)c(Cl)n2)n1)C(F)(F)F', '> 1000 nM'),
  ('Nc1c(F)cc(-c2nc(NC3CC(F)(F)C3)nc(NC3CC(F)(F)C3)n2)nc1Cl', '≤ 50 nM');

Here is another compound to look at.
Task: Reported IC50, compound C[C@@H](Nc1nc(N[C@H](C)C(F)(F)F)nc(-c2cc(C(F)(F)F)c(N)c(Cl)n2)n1)C(F)(F)F : ____
Result: 100 to 1000 nM

###

targetEntity: IDH1^R132H (Homo sapiens, UniProt O75874, R132H)
protocolDescription: Enzyme activity inhibition assay (fluorescence-based), IDH1 R132H
Assay type: biochemical
appliedConditions: class symbols
Source text: The inhibitory ability of the compounds on the enzyme activities of IDH1^R132H and IDH2^R140Qwas detected and expressed as the half inhibitory concentration (IC50) value. AG-881 was used as a positive control compound. […]
assayMetric: IC50

Consider the following illustrative entries.
INSERT INTO results (chemsmiles, assaymetric, observedmeasurement) VALUES
  ('Cc1cc(-c2nc(N[C@H](C)C(F)(F)F)nc(N[C@H](C)C(F)(F)F)n2)nc(Cl)c1N', 'IC50', '> 1000 nM'),
  ('C[C@@H](Nc1nc(N[C@H](C)C(F)(F)F)nc(-c2cc(F)c(Br)c(Cl)n2)n1)C(F)(F)F', 'IC50', '50 to 100 nM'),
  ('C[C@@H](Nc1nc(N[C@H](C)C(F)(F)F)nc(-c2cc(Cl)c(O)c(Cl)n2)n1)C(F)(F)F', 'IC50', '50 to 100 nM'),
  ('C[C@@H](Nc1nc(N[C@H](C)C(F)(F)F)nc(-c2cc(F)c(O)c(Cl)n2)n1)C(F)(F)F', 'IC50', '> 1000 nM'),
  ('C[C@@H](Nc1nc(N[C@H](C)C(F)(F)F)nc(-c2cc(F)c(N)c(C(F)(F)F)n2)n1)C(F)(F)F', 'IC50', '> 1000 nM');

Task: Reported IC50, molecule C[C@@H](Nc1nc(N[C@H](C)C(F)(F)F)nc(-c2cc(OC(F)F)c(N)c(Cl)n2)n1)C(F)(F)F : ____
Result: > 1000 nM

Task: Now try C[C@@H](Nc1nc(N[C@H](C)C(F)(F)F)nc(-c2cc(Cl)c(N(C)C)c(Cl)n2)n1)C(F)(F)F .
Result: 100 to 1000 nM
